- Test system: Staphylococcus aureus X400
- test.name: standard agar-dilution MIC assay
- Assay type: cell-based
- condition.info: Staphylococcus aureus, X400
- Description: The MIC's in Table III were determined by standard agar-dilution assays. The MIC's in Table IV were obtained using conventional brothdilution microtiter tests.
endpoint.name: MIC (µg/mL)
Express the result in µg/mL but write the number alone.

Example cases with answers are listed next.
| compound | target.under.test | endpoint.name | readout.unit | data.value |
| --- | --- | --- | --- | --- |
| CCC1OC(=O)CC(O)C(C)C(OC2OC(C)C(O)C(N(C)C)C2O)C(CCOc2ccccc2)CC(C)C(=O)C=CC(C)=CC1COC1OC(C)C(OC(C)=O)C(OC(C)=O)C1OC (stereo not drawn) | Staphylococcus aureus X400 | MIC | µg/mL | 16 |
| CCC1OC(=O)CC(O)C(C)C(OC2OC(C)C(OC3CC(C)(O)C(O)C(C)O3)C(N(C)C)C2O)C(CC=O)CC(C)C(=O)C=CC(C)=CC1COC1OC(C)C2OC(=O)OC2C1OC (stereo not drawn) [Compound 49, Macrocin-3'",4'"-Carbonate Derivative] | Staphylococcus aureus X400 | MIC | µg/mL | 1 |
| CCC1OC(=O)CC(O)C(C)C(OC2OC(C)C(O)C(N(C)C)C2O)C(CC=O)CC(C)C(=O)C=CC(C)=CC1COC1OC(C)C(OC(C)=O)C(OC(=O)COc2ccccc2)C1OC (stereo not drawn) | Staphylococcus aureus X400 | MIC | µg/mL | 2 |

The measured MIC associated with CCC1OC(=O)CC(O)C(C)C(OC2OC(C)C(O)C(N(C)C)C2O)C(CC=O)CC(C)C(=O)C=CC(C)=CC1COC1OC(C)C(OC(=O)COc2ccccc2)C(OC(=O)COc2ccccc2)C1OC (stereo not drawn) reads 2

The measured MIC associated with CCC1OC(=O)CC(O)C(C)C(OC2OC(C)C(O)C(N(C)C)C2O)C(CCOc2ccccc2)CC(C)C(=O)C=CC(C)=CC1COC1OC(C)C2OC(=S)OC2C1OC (stereo not drawn) reads 1

The measured MIC associated with CCC1OC(=O)CC(O)C(C)C(OC2OC(C)C(O)C(N(C)C)C2OC(C)=O)C(CC=O)CC(C)C(=O)C=CC(C)=CC1COC1OC(C)C(OC(C)=O)C(O)C1OC (stereo not drawn) reads 8

The measured MIC associated with CCC1OC(=O)CC(O)C(C)C(OC2OC(C)C(O)C(N(C)C)C2O)C(CCOc2ccccc2)CC(C)C(=O)C=CC(C)=CC1COC1OC(C)C2OC(C)(C)OC2C1OC (stereo not drawn) reads 4

The measured MIC associated with CCC1OC(=O)CC(O)C(C)C(OC2OC(C)C(OC3CC(C)(O)C(O)C(C)O3)C(N(C)C)C2OC(C)=O)C(CC=O)CC(C)C(=O)C=CC(C)=CC1COC1OC(C)C(OC(=O)CC(C)C)C(OC(=O)CC(C)C)C1OC (stereo not drawn) reads 16

The measured MIC associated with CCC1OC(=O)CC(O)C(C)C(OC2OC(C)C(O)C(N(C)C)C2OC(C)=O)C(CC=O)CC(C)C(=O)C=CC(C)=CC1COC1OC(C)C(OC(=O)CC(C)C)C(O)C1OC (stereo not drawn) reads 2

---

- System: Staphylococcus aureus X400
- test.name: standard agar-dilution MIC assay
- Format: cell-based
- condition.info: Staphylococcus aureus, X400
endpoint.name: MIC
Give me the value, and tack the unit on after it.

Example cases with answers are listed next.
| compound | data.value |
| --- | --- |
| CCC1OC(=O)CC(O)C(C)C(OC2OC(C)C(OC3CC(C)(O)C(O)C(C)O3)C(N(C)C)C2OC(C)=O)C(CC=O)CC(C)C(=O)C=CC(C)=CC1COC1OC(C)C2OC(=O)OC2C1OC (stereo not shown) | 2 µg/mL |
| CCC1OC(=O)CC(O)C(C)C(OC2OC(C)C(OC3CC(C)(O)C(O)C(C)O3)C(N(C)C)C2OC(C)=O)C(CC=O)CC(C)C(=O)C=CC(C)=CC1COC1OC(C)C(OC(C)=O)C(OC(=O)Cc2ccccc2)C1OC (stereo not shown) | 4 µg/mL |
| CCC1OC(=O)CC(O)C(C)C(OC2OC(C)C(O)C(N(C)C)C2O)C(CC=O)CC(C)C(=O)C=CC(C)=CC1COC1OC(C)C(OC(=O)Cc2ccccc2)C(O)C1OC (stereo not shown) | 1 µg/mL |

Lab note: next compound to report on.
The measured MIC associated with CCC1OC(=O)CC(O)C(C)C(OC2OC(C)C(OC3CC(C)(O)C(O)C(C)O3)C(N(C)C)C2OC(C)=O)C(CC=O)CC(C)C(=O)C=CC(C)=CC1COC1OC(C)C(OC(=O)COc2ccccc2)C(O)C1OC (stereo not shown) reads 2 µg/mL

---

- Test system: Pasteurella multocida
- test.name: Pasteurella multocida infection in one-day-old chicks
- Format: in vivo
- condition.info: subcutaneously, 30 mg/kg × 2, 1 and 4 hours post-challenge
endpoint.name: Number of Deaths/Number Treated

Example cases with answers are listed next.
| compound | data.value |
| --- | --- |
| CCC1OC(=O)CC(O)C(C)C(OC2OC(C)C(OC3CC(C)(O)C(O)C(C)O3)C(N(C)C)C2OC(C)=O)C(CC=O)CC(C)C(=O)C=CC(C)=CC1COC1OC(C)C(OC(=O)Cc2ccccc2)C(O)C1OC (centres unmarked) [Compound 9, 2'-O-Acetyl-4'"-O-phenylacetyl-macrocin] | 10/10 |
| CCC1OC(=O)CC(O)C(C)C(OC2OC(C)C(O)C(N(C)C)C2OC(C)=O)C(CC=O)CC(C)C(=O)C=CC(C)=CC1COC1OC(C)C(OC(C)=O)C(O)C1OC (centres unmarked) [Compound 21, 2',4"-Di-O-acetyl-lactenocin] | 3/10 |
| CCC1OC(=O)CC(O)C(C)C(OC2OC(C)C(O)C(N(C)C)C2OC(C)=O)C(CC=O)CC(C)C(=O)C=CC(C)=CC1COC1OC(C)C(OC(=O)Cc2ccccc2)C(O)C1OC (centres unmarked) [Compound 29, 2'-O-Acetyl-4"-O-phenylacetyl-lactenocin] | 9/10 |
| CCC1OC(=O)CC(O)C(C)C(OC2OC(C)C(O)C(N(C)C)C2OC(C)=O)C(CC=O)CC(C)C(=O)C=CC(C)=CC1COC1OC(C)C(OC(=O)COc2ccccc2)C(O)C1OC (centres unmarked) [Compound 33] | 8/10 |

The measured Number of Deaths/Number Treated associated with CCC1OC(=O)CC(O)C(C)C(OC2OC(C)C(O)C(N(C)C)C2OC(C)=O)C(CC=O)CC(C)C(=O)C=CC(C)=CC1COC1OC(C)C(OC(C)=O)C(OC(C)=O)C1OC (centres unmarked) [Compound 23, 2',3",4"-Tri-O-acetyl-lactenocin] reads 10/10

---

- Test system: Mycoplasma gallisepticum 36H
- test.name: broth-dilution microtiter MIC test
- Assay type: cell-based
- condition.info: Mycoplasmoides gallisepticum, 36H
Reported MIC is given for each of the following compounds.
Express the result in µg/mL but write the number alone.

The measured MIC associated with CCC1OC(=O)CC(O)C(C)C(OC2OC(C)C(OC3CC(C)(O)C(O)C(C)O3)C(N(C)C)C2OC(C)=O)C(CC=O)CC(C)C(=O)C=CC(C)=CC1COC1OC(C)C(OC(=O)COc2ccccc2)C(OC(=O)COc2ccccc2)C1OC (centres unmarked) reads 50

The measured MIC associated with CCC1OC(=O)CC(O)C(C)C(OC2OC(C)C(O)C(N(C)C)C2O)C(CC=O)CC(C)C(=O)C=CC(C)=CC1COC1OC(C)C(OC(=O)CC(C)C)C(O)C1OC (centres unmarked) reads 50

---

- Tested on: Staphylococcus aureus X400
- test.name: standard agar-dilution MIC assay
- Type: cell-based
- condition.info: Staphylococcus aureus, X400
Reported MIC is given for each of the following molecules.
Express the result in µg/mL but write the number alone.

| molecule | target.under.test | endpoint.name | data.value |
| --- | --- | --- | --- |
| CCC1OC(=O)CC(O)C(C)C(OC2OC(C)C(O)C(N(C)C)C2O)C(CC=O)CC(C)C(=O)C=CC(C)=CC1COC1OC(C)C(O)C(OC(=O)Cc2ccccc2)C1OC (centres unmarked) [Compound 32, 3"-O-Phenylacetyl-lactenocin] | Staphylococcus aureus X400 | MIC | 2 |
| CCC1OC(=O)CC(O)C(C)C(OC2OC(C)C(O)C(N(C)C)C2O)C(CC=O)CC(C)C(=O)C=CC(C)=CC1COC1OC(C)C2OC(=O)OC2C1OC (centres unmarked) [Compound 51, Lactenocin-3",4"-Carbonate Derivative] | Staphylococcus aureus X400 | MIC | 2 |
| CCC1OC(=O)CC(O)C(C)C(OC2OC(C)C(O)C(N(C)C)C2O)C(CC=O)CC(C)C(=O)C=CC(C)=CC1COC1OC(C)C(OC(=O)CC(C)C)C(O)C1OC (centres unmarked) [Compound 26, 4"-O-Isovaleryl-lactenocin] | Staphylococcus aureus X400 | MIC | 2 |
| CCC1OC(=O)CC(O)C(C)C(OC2OC(C)C(O)C(N(C)C)C2O)C(CC=O)CC(C)C(=O)C=CC(C)=CC1COC1OC(C)C2OC(C)(C)OC2C1OC (centres unmarked) [Compound 55] | Staphylococcus aureus X400 | MIC | 4 |
| CCC1OC(=O)CC(O)C(C)C(OC2OC(C)C(OC3CC(C)(O)C(O)C(C)O3)C(N(C)C)C2OC(C)=O)C(CC=O)CC(C)C(=O)C=CC(C)=CC1COC1OC(C)C(OC(C)=O)C(OC(=O)COc2ccccc2)C1OC (centres unmarked) [Compound 19] | Staphylococcus aureus X400 | MIC | 2 |
| CCC1OC(=O)CC(O)C(C)C(OC2OC(C)C(OC3CC(C)(O)C(O)C(C)O3)C(N(C)C)C2O)C(CC=O)CC(C)C(=O)C=CC(C)=CC1COC1OC(C)C(OC(=O)Cc2ccccc2)C(O)C1OC (centres unmarked) [Compound 10, 4'"-O-Phenylacetyl-macrocin] | Staphylococcus aureus X400 | MIC | 2 |
| CCC1OC(=O)CC(O)C(C)C(OC2OC(C)C(OC3CC(C)(O)C(O)C(C)O3)C(N(C)C)C2OC(C)=O)C(CC=O)CC(C)C(=O)C=CC(C)=CC1COC1OC(C)C(OC(=O)Cc2ccccc2)C(O)C1OC (centres unmarked) [Compound 9, 2'-O-Acetyl-4'"-O-phenylacetyl-macrocin] | Staphylococcus aureus X400 | MIC | 2 |
| CCC1OC(=O)CC(O)C(C)C(OC2OC(C)C(O)C(N(C)C)C2OC(C)=O)C(CC=O)CC(C)C(=O)C=CC(C)=CC1COC1OC(C)C(OC(C)=O)C(OC(=O)COc2ccccc2)C1OC (centres unmarked) [Compound 37] | Staphylococcus aureus X400 | MIC | 2 |
| CCC1OC(=O)CC(O)C(C)C(OC2OC(C)C(O)C(N(C)C)C2O)C(CC=O)CC(C)C(=O)C=CC(C)=CC1COC1OC(C)C(OC(=O)CC(C)C)C(OC(=O)CC(C)C)C1OC (centres unmarked) [Compound 28, 3",4"-Di-O-isovaleryl-lactenocin] | Staphylococcus aureus X400 | MIC | 4 |
| CCC1OC(=O)CC(O)C(C)C(OC2OC(C)C(O)C(N(C)C)C2OC(C)=O)C(CC=O)CC(C)C(=O)C=CC(C)=CC1COC1OC(C)C(OC(=O)Cc2ccccc2)C(O)C1OC (centres unmarked) [Compound 29, 2'-O-Acetyl-4"-O-phenylacetyl-lactenocin] | Staphylococcus aureus X400 | MIC | 1 |

Lab note: next molecule to report on.
The measured MIC associated with CCC1OC(=O)CC(O)C(C)C(OC2OC(C)C(OC3CC(C)(O)C(O)C(C)O3)C(N(C)C)C2OC(C)=O)C(CC=O)CC(C)C(=O)C=CC(C)=CC1COC1OC(C)C(OC(=O)Cc2ccccc2)C(OC(=O)Cc2ccccc2)C1OC (centres unmarked) [Compound 11] reads 64
